# system: CDK8/Cyclin C (Homo sapiens) (UniProt P49336+P24863)
# assay remarks: Inhibition of CDK8/Cyclin C (unknown origin) at 10 uM measured after 1 hr by plate reader assay relative to control
# Assay type: protein-complex assay
quantity kind: inhibition (%)

Below, 4 compounds whose answers are already recorded.
[[record]]
chemical_structure = "O=C(O)CCNC(=O)/C=C/c1ccncc1-c1ccc2ccccc2c1"
system = "CDK8/Cyclin C (Homo sapiens) (UniProt P49336+P24863)"
measured_value = 91

[[record]]
chemical_structure = "CN1CCN(C(=O)/C=C/c2ccncc2-c2ccc3ccccc3c2)CC1"
system = "CDK8/Cyclin C (Homo sapiens) (UniProt P49336+P24863)"
measured_value = 101

[[record]]
chemical_structure = "CCOC(=O)/C=C/c1ccncc1-c1ccc2cc[nH]c2c1"
system = "CDK8/Cyclin C (Homo sapiens) (UniProt P49336+P24863)"
measured_value = 104

[[record]]
chemical_structure = "CNC(=O)/C=C/c1ccncc1-c1ccc2c(ccn2C)c1"
system = "CDK8/Cyclin C (Homo sapiens) (UniProt P49336+P24863)"
measured_value = 99


[P] COC(=O)COc1ccncc1-c1ccc2ccccc2c1
[Q] CNC(=O)CCc1ccncc1-c1ccc2ccccc2c1
Please let me know which one, P or Q , has a lower measured inhibition value. Reply briefly: the label of your chosen item. P

----------
# System: HCT-116
# assay remarks: Antiproliferative activity against human HCT-116 cells assessed as inhibition of cell growth measured after 72 hrs by […]
# Format: functional
quantity kind: GI50

[[record]]
chemical_structure = "O=C(CCc1ccncc1-c1ccc2ccccc2c1)N1CCOCC1"
quantity_kind = "GI50"
measured_value = "> 30 µM"


Requested read-out: GI50. Entry: "CNC(=O)/C=C/c1ccncc1-c1ccc2[nH]ccc2c1" > 30 µM

Query "O=C(O)/C=C/c1ccncc1-c1ccc2[nH]ccc2c1" next > 30 µM

----------
# system: CDK8/Cyclin C (Homo sapiens) (UniProt P49336+P24863)
# assay remarks: Inhibition of CDK8/Cyclin C (unknown origin) at 10 uM measured after 1 hr by plate reader assay relative to control
# Format: protein-complex assay
quantity kind: inhibition (%)

[[record]]
chemical_structure = "CCOC(=O)/C=C/c1ccncc1-c1ccc2ccccc2c1"
measured_value = 102

[[record]]
chemical_structure = "O=C(O)CCc1ccncc1-c1ccc2ccccc2c1"
measured_value = 101

[[record]]
chemical_structure = "O=C(/C=C/c1ccncc1-c1ccc2ccccc2c1)N1CCOCC1"
measured_value = 99


----------
# System: MDA-MB-231
# assay remarks: Antiproliferative activity against human MDA-MB-231 cells assessed as inhibition of cell growth measured after 72 hrs by SRB assay
# Type: functional
quantity kind: GI50

[[record]]
chemical_structure = "CN(C)C(=O)/C=C/c1ccncc1-c1ccc2ccccc2c1"
quantity_kind = "GI50"
measured_value = "7.99 µM"

[[record]]
chemical_structure = "Cn1ncc2cc(-c3cnccc3/C=C/C(=O)O)ccc21"
quantity_kind = "GI50"
measured_value = "> 10 µM"


The record that follows has no GI50 shown yet.
Requested read-out: GI50. Entry: "CNC(=O)/C=C/c1ccncc1-c1ccc2[nH]ccc2c1" > 10 µM
